- subjectOfTest: T1, HrpA1-1300 (full-length) (Escherichia coli, UniProt P43329 1-1300)
- T1 sequence: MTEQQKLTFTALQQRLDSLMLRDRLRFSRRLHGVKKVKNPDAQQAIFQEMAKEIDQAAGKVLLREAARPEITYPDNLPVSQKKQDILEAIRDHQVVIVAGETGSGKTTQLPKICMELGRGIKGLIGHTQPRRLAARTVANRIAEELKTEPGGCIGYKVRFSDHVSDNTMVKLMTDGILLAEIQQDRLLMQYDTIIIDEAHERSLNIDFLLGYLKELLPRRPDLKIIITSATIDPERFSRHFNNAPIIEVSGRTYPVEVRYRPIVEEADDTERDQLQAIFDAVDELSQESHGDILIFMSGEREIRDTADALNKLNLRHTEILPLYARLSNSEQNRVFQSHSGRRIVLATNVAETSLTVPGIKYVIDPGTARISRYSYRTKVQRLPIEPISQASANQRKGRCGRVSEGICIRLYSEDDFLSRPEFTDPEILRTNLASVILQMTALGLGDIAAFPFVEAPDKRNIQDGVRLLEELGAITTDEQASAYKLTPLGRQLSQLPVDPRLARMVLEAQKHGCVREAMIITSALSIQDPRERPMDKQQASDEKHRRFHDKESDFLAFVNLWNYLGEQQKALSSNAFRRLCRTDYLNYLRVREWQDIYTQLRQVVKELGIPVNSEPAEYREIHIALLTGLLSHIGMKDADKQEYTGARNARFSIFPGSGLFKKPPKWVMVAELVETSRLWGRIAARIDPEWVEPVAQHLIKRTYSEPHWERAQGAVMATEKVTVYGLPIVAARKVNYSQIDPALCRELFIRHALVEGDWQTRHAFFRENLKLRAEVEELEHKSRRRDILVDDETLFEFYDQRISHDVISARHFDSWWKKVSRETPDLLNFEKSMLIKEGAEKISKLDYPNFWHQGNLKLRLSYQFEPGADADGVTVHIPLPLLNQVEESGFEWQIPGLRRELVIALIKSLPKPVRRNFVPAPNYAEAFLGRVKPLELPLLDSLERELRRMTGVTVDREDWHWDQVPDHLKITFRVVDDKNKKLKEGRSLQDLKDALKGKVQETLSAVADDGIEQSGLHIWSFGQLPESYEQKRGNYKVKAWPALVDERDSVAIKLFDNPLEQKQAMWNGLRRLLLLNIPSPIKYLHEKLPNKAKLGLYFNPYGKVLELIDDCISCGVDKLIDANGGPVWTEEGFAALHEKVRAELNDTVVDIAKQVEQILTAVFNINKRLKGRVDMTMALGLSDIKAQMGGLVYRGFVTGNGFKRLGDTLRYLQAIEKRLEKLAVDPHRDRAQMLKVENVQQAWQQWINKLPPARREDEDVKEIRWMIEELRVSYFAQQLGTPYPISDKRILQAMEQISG
- assayDetails: fluorescence anisotropy
pKd: −log10 of the molar value.

binder | pKd
TTTTTTTTTTTT (ssDNA) [D-T12] | 6.51

Attribution: paper PMC11014265
